# PROTOCOL_TEXT: In vivo pharmacokinetics in rat, oral and intravenous
# Design: species or system Sprague-Dawley rats
# MEASUREMENT_SETUP: male, Sprague-Dawley, plasma, po, 1 mg/kg, following oral administration, read-out: extended half life (converted)
# Protocol: Absorption and metabolic stability were studied using an in vivo pharmacokinetics assay. Drug levels were assessed using ultra-performance LC/TOF-MS. Three male Sprague-Dawley rats, 200-300 g, were dosed per route. […] Test compound was formulated in 50:50 tetraethylene glycol:PBS for both routes. […] The pharmacokinetic parameters for the test compounds were calculated by WinNonlin Pro (Pharsight Corp, CA) using standard noncompartmental methods. […]
QUANTITY: half-life (h)
I only need the number, in h, no unit after it.

Annotate the compound CNC(CO)c1cccc(NS(=O)(=O)c2ccc(-c3ccc(F)cc3F)cc2)c1 (stereo not shown) [ABD789] with its measured half-life. 7.67

###

# PROTOCOL_TEXT: In vivo pharmacokinetics in rat, oral and intravenous
# Parameters: species or system Sprague-Dawley rats
# MEASUREMENT_SETUP: male, Sprague-Dawley, plasma, po, 1 mg/kg, p.o., 1 mg/kg, read-out: T½ (converted)
QUANTITY: half-life (h)
I only need the number, in h, no unit after it.

Annotate the compound CNC(CO)c1cccc(NS(=O)(=O)c2ccc(-c3ccc(F)cc3F)cc2)c1 (stereo not shown) with its measured half-life. 3.17

###

# PROTOCOL_TEXT: Human liver microsomal stability assay
# Assay type: in vitro ADME
# MEASUREMENT_SETUP: both sexes, pH 7.4; pooled human liver microsomes 0.5 mg/mL, test compound 3 μM, 45 minute incubation, NADPH
Items are presented alongside their recorded log10 half-life at 3 μM.
// units: min (pre-log); metric: half-life at 3 μM; scale: log10

# example entries with known answers
>>> recorded_number("O=S(=O)(Nc1ccc(CO)cc1)c1ccc(-c2ccc(F)cc2F)cc1 [ABD466, reference compound]")
0.30
>>> recorded_number("NS(=O)(=O)c1cccc(NS(=O)(=O)c2ccc(-c3ccc(Cl)cc3Cl)cc2)c1")
1.66
>>> recorded_number("CN(C)Cc1cccc(NS(=O)(=O)c2ccc(-c3ccc(Cl)cc3Cl)cc2)c1")
1.32
>>> recorded_number("N[C@H](CO)c1cccc(NS(=O)(=O)c2ccc(-c3ccc(F)cc3F)cc2)c1")
2.46
>>> recorded_number("O=S(=O)(Nc1cccc(C(O)C(F)(F)F)c1)c1ccc(-c2ccc(Cl)cc2Cl)cc1 (stereo not drawn)")
1.20

Annotate the compound CN(C)C(CO)c1cccc(NS(=O)(=O)c2ccc(-c3ccc(F)cc3F)cc2)c1 (stereo not drawn) with its measured log10 half-life at 3 μM. 1.43

Annotate the compound CC(O)c1cccc(NS(=O)(=O)c2ccc(-c3ccc(Cl)cc3Cl)cc2)c1 (stereo not drawn) with its measured log10 half-life at 3 μM. 0.78

Annotate the compound O=S(=O)(Nc1cccc(C2(O)CC2)c1)c1ccc(-c2ccc(Cl)cc2Cl)cc1 with its measured log10 half-life at 3 μM. 1.26

Annotate the compound CN(C)C(=O)c1cccc(NS(=O)(=O)c2ccc(-c3ccc(Cl)cc3Cl)cc2)c1 with its measured log10 half-life at 3 μM. 1.18

Annotate the compound NCc1cccc(NS(=O)(=O)c2ccc(-c3ccc(F)cc3F)cc2)c1 with its measured log10 half-life at 3 μM. 1.78

Annotate the compound O=S(=O)(Nc1cccc(C(CO)N2CCOCC2)c1)c1ccc(-c2ccc(F)cc2F)cc1 (stereo not drawn) with its measured log10 half-life at 3 μM. 0.30

Annotate the compound CC(=O)c1cccc(NS(=O)(=O)c2ccc(-c3ccc(Cl)cc3Cl)cc2)c1 [ABD746, reference compound] with its measured log10 half-life at 3 μM. 1.04

Annotate the compound CC(C)(O)c1cccc(NS(=O)(=O)c2ccc(-c3ccc(Cl)cc3Cl)cc2)c1 with its measured log10 half-life at 3 μM. 1.08

Annotate the compound O=S(=O)(Nc1cccc(CCO)c1)c1ccc(-c2ccc(F)cc2F)cc1 [ABD628, reference compound] with its measured log10 half-life at 3 μM. 1.26

Annotate the compound O=S(=O)(Nc1cccc(C(O)CN2CCOCC2)c1)c1ccc(-c2ccc(F)cc2F)cc1 (stereo not drawn) with its measured log10 half-life at 3 μM. 0.78
